Test system: HS 578T breast
Assay: NCI tumour cell line growth inhibition, 48 h
List of TGI values.

{"columns": ["compound", "TGI"],
 "data": [
  ["CC(=O)OCC1OC(n2c3c(cc(C#N)c2=S)CCCCC3)C(OC(C)=O)C(OC(C)=O)C1OC(C)=O (stereo not given)", "> 100 µM"],
  ["COC(=O)C1CCCN1C(=O)C(Cc1cn(S(=O)(=O)c2ccc(C)cc2)cn1)NC(=O)OC(C)(C)C (stereo not given)", "> 100 µM"],
  ["CC1CCCC(CC(=O)O)(CC(=O)O)C1 (stereo not given)", "> 100 µM"],
  ["CC12CCC(O)CC1CCC1C2CCC2(C)C(C(=O)CC(O)C(F)(F)F)CCC12 (stereo not given)", "> 80 µM"],
  ["CC(C)NC(=O)OCCN=c1c2ccccc2ccc2ccccc12", "> 100 µM"]
]}

* * *

System: HCT-116 colon
Assay: NCI tumour cell line growth inhibition, 48 h

{"columns": ["compound", "experimental-target", "TGI"],
 "data": [
  ["O=C1C(=Cc2ccccc2O)N=C(c2ccccc2)N1n1c(-c2ccccc2)nc2ccccc2c1=O", "HCT-116 colon", "89.8 µM"],
  ["O=c1c2cc(Br)cc(Br)c2nc(CCCl)n1CCO", "HCT-116 colon", "> 100 µM"],
  ["COc1ccc2c(c1)CCN1CCc3ccccc3CC21 (stereo not given)", "HCT-116 colon", "> 100 µM"],
  ["O=NN(CCCl)C(=O)NC1CCC(O)CC1 (stereo not given)", "HCT-116 colon", "> 94.4 µM"],
  ["COc1ccc(CC2NCCc3cc(OC)c(OC)cc32)cc1Br (stereo not given)", "HCT-116 colon", "36.9 µM"],
  ["Nc1ccn(C2CCC(CO)O2)c(=O)n1 (stereo not given)", "HCT-116 colon", "> 1000 µM"],
  ["O=C(c1ccccc1)C1OC12C(=O)Nc1ccccc12 (stereo not given)", "HCT-116 colon", "> 100 µM"],
  ["N#CC1CC2(C1)OCCS2 (stereo not given)", "HCT-116 colon", "> 100 µM"],
  ["CCCCON(OC(=O)c1ccc2ccc3cccc4ccc1c2c34)C(C)=O", "HCT-116 colon", "52.3 µM"],
  ["C=CC/C=C/C/C=C/CCCCCCCc1cccc(O)c1C(=O)O", "HCT-116 colon", "> 100 µM"],
  ["O=C(O)[C@H](NS(=O)(=O)c1ccc([N+](=O)[O-])cc1)c1ccccc1", "HCT-116 colon", "> 100 µM"],
  ["O=C1CSC(c2ccc(Cl)cc2Cl)N1c1ccc(F)cc1 (stereo not given)", "HCT-116 colon", "30.3 µM"],
  ["CN1COCc2c1ccc1cc3ccc4c(c3nc21)COCN4S(C)(=O)=O", "HCT-116 colon", "> 100 µM"],
  ["C[C@H](O)C(=O)N1CCC(CCn2c(Sc3cc4c(cc3Br)OCO4)nc3c(N)ncnc32)CC1", "HCT-116 colon", "> 100 µM"],
  ["CCOC(=O)NC(=O)c1cn(CCCOC(=O)CCCCCCCCCCC(=O)OCCCn2cc(C(=O)NC(=O)OCC)c(=O)[nH]c2=O)c(=O)[nH]c1=O", "HCT-116 colon", "> 100 µM"]
]}

* * *

System: NCI-H460 lung
Assay: NCI tumour cell line growth inhibition, 48 h

{"columns": ["molecule", "TGI"],
 "data": [
  ["COc1ccc(NS(=O)(=O)c2ccc(NC(NC(=O)CC(C)C)(C(F)(F)F)C(F)(F)F)cc2)nn1", "> 100 µM"],
  ["C=C1CN2CC(=C)CN(C1)CS(=O)(=O)N1CC(=C)CN(CC(=C)C1)S(=O)(=O)N1CC(=C)CN(CC(=C)C1)S(=O)(=O)C2", "> 100 µM"],
  ["CCSc1nc(SCC)c2cn[nH]c2n1", "> 100 µM"]
]}

* * *

Test system: NCI-H226 lung
Experiment: NCI tumour cell line growth inhibition, 48 h
TGI reference

{"columns": ["molecule", "TGI"],
 "data": [
  ["CCOc1cc(C(C)(C)C)ccc1C1=N[C@@](C)(c2ccc(Cl)cc2)[C@@](C)(c2ccc(Cl)cc2)N1C(=O)N1CCN(CCCS(C)(=O)=O)CC1", "2.11 µM"],
  ["CCC(=O)ONC(=O)Cn1ccc([N+](=O)[O-])n1", "> 100 µM"],
  ["Nc1ccc(S2(c3ccc(N)cc3)C=C(c3ccccc3)C(c3ccccc3)=C2)cc1", "> 63.3 µM"],
  ["CC(C(O)Cc1ccccc1)N(C)N=Nc1ccc([N+](=O)[O-])cc1 (centres undefined)", "39.5 µM"],
  ["S=C(Nc1ccc2c(c1)oc1ccccc12)c1cccnc1", "96.1 µM"],
  ["CC(=O)O[C@H]1CC[C@@]2(C)C(=CC[C@H]3[C@@H]4C[C@H](N5CCOCC5)[C@H](OC(C)=O)[C@@]4(C)CC[C@@H]32)C1", "> 100 µM"],
  ["C=CCOc1ccc(C2(O)c3ccccc3C3=NCCCN32)cc1 (centres undefined)", "> 100 µM"],
  ["O=C(O)C1C(Br)(c2ccccc2)C1(Br)c1ccccc1 (centres undefined)", "> 100 µM"],
  ["Cc1ccc(-c2nc3ccc(Cl)cc3c(=O)n2N2C(=O)CSC2c2ccccc2Cl)cc1 (centres undefined)", "> 100 µM"],
  ["c1ccc(C2Nc3ccccc3C3OCCCC23)cc1 (centres undefined)", "68.3 µM"],
  ["O=C(CN(c1ccccc1)c1ccccc1)n1nnc2ccccc21", "> 100 µM"],
  ["Cn1c2ccccc2c(=O)c2cccc(C(=O)NC(CCCN=C(N)N)C(=O)O)c21 (centres undefined)", "> 100 µM"],
  ["CC(C)(Cl)C(Br)CCC(=CCCl)CBr (mixture of isomers)", "45 µM"],
  ["CSc1cnc2ccccc2c1SC1CN(Cc2ccccc2)c2ccccc2C1=O (centres undefined)", "> 100 µM"],
  ["COc1ccc(/C=C2\\N=C(SC)NC2=O)cc1", "> 100 µM"],
  ["CC(C)=CCNc1ncnc2c1ncn2CCC#N", "> 100 µM"],
  ["CC(=O)NC1c2ccccc2C(C)(C)C12CCC1(CC2)OCCO1 (centres undefined)", "> 100 µM"],
  ["COc1ccc2c(cnc3c4cc(OC)c(OC)cc4ccc23)c1", "> 100 µM"],
  ["COC(=O)C1=C(C)NC(C)=C(C(=O)OC)C1c1nc2sccn2c1[N+](=O)[O-]", "> 100 µM"]
]}

* * *

System: KM12 colon
Assay: NCI tumour cell line growth inhibition, 48 h
A collection of compounds and their measured TGI
result-type: TGI

{"columns": ["compound", "result"],
 "data": [
  ["COc1c(CCl)cc(-c2cc(=O)c3ccccc3s2)cc1CCl", "> 100 µM"],
  ["COc1cc2c3c(c1OC)C1(C=CC(=O)C=C1)C[C@H]3N(C)CC2", "> 100 µM"],
  ["O=C1NC2OC(C(O)CO)C(O)C2O1 (stereo unspecified)", "> 100 µM"],
  ["Cc1[nH]c2ccccc2c(=O)c1CC=C(Cl)Cl", "> 100 µM"],
  ["C=CC[C@]12C=C(OC)[C@@H](O)[C@](OC)(C(c3cc(OC)c4c(c3)OCO4)[C@H]1C)[C@H]2OC(C)=O (stereo partly specified)", "> 100 µM"],
  ["CC(=O)O[C@H]1CC[C@@]2(C)C(=CC[C@H]3[C@@H]4C[C@H](N5CCOCC5)[C@H](OC(C)=O)[C@@]4(C)CC[C@@H]32)C1", "> 100 µM"]
]}

* * *

Test system: MALME-3M melanoma
Assay: NCI tumour cell line growth inhibition, 48 h
Recorded TGI, one value per entry.
result-type: TGI

{"columns": ["molecule", "result-type", "result"],
 "data": [
  ["COc1cc(/C=C(\\C#N)c2ccccc2)cc(OC)c1", "TGI", "> 100 µM"],
  ["O=NN(CCCl)C(=O)NC1CCC(O)CC1 (stereo unspecified)", "TGI", "> 71.1 µM"],
  ["O=C1CCCC[C@H]1[C@H]1CCC[C@@H]([C@H]2CCCCC2=O)C1=O", "TGI", "> 100 µM"],
  ["C=CCOc1ccc(C2C(C(=O)OCC)C(=O)CC(C)(O)C2C(=O)OCC)cc1OC (stereo unspecified)", "TGI", "> 100 µM"],
  ["Cc1[nH]c2ccccc2c(=O)c1CC=C(Cl)Cl", "TGI", "> 100 µM"],
  ["CCC1(C)C=Cc2c(cc(O)c3c(=O)c4ccccc4n(C)c23)O1 (stereo unspecified)", "TGI", "> 10 µM"],
  ["Cn1c2ccccc2c(=O)c2cccc(C(=O)NC(CCCN=C(N)N)C(=O)O)c21 (stereo unspecified)", "TGI", "> 100 µM"],
  ["Nc1nc(F)nc2c1ncn2C1OC(CO)C(O)C1O (stereo unspecified)", "TGI", "> 100 µM"],
  ["COc1ccc2cc(C(C)C(=O)N3CCOC3=O)ccc2c1 (stereo unspecified)", "TGI", "> 100 µM"],
  ["COc1cc(/C=C/c2ccc(OC)c(OC)c2)cc(OC)c1", "TGI", "> 100 µM"],
  ["CCCCN=C(c1ccccc1)N1CCOCC1", "TGI", "> 100 µM"]
]}
